Test system: MCF7 cells
PROTOCOL_NOTES: Cell viability assay (CellTiter-Glo), MCF7, 120 h
Format: cell-based, human
CONDITION_CONTEXT: Homo sapiens, MCF7, 120 h, read-out: IC50, MCF7
Method: Tumor cell lines (the rat pancreatic tumor cell line AR42J and the human breast carcinoma cell line MCF7) were obtained from the American Type Culture Collection and were grown according to standard protocols. The effects of the cryptophycin-55-glycinate-octreotide conjugate of Example 5 on the viability of the tumor cell lines AR42J (STTR2^high) and MCF7 (SSTR2^low) were assessed using the CellTiter-Glo® Luminescent Cell Viability Assay (Promega), according to the manufacturer protocol. […]
QUANTITY_KIND: IC50 (nM)
Respond with the bare value in nM.

Exam item: Fill in the blank: the reported IC50 of COc1ccc(C[C@H]2NC(=O)/C=C/C[C@@H]([C@H](C)[C@@H](OC(=O)CN)[C@@H](Cl)c3ccccc3)OC(=O)[C@H](CC(C)C)OC(=O)C(C)(C)CNC2=O)cc1Cl is ____.
Marked response: 0.2
